# Assay Target: recombinant human cGAS (aa147-522) (Homo sapiens, UniProt Q8N884)
# Construct: recombinant human cGAS (aa147-522); His6-SUMO (cleaved yes); made in house; host or cells: E. coli BL21/pLys
# Sequence (Q8N884 147-522): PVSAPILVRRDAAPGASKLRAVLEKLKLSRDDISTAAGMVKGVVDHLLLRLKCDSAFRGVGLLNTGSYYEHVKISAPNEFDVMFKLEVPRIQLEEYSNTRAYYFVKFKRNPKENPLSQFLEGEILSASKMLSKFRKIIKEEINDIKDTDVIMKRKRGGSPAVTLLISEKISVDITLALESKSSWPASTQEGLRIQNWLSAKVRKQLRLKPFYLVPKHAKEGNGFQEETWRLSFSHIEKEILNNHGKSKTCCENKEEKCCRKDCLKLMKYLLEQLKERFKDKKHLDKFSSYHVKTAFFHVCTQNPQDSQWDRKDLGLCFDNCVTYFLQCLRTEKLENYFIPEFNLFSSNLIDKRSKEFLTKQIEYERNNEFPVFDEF
# Test Details: In vitro inhibition assay of cGAS activity (ATP consumption, KinaseGlo Max)
# Assay type: biochemical
# Applied Conditions: Table 2, read-out: cGAS Inhibition Results IC50
Reported IC50 values for the following molecules.
Outcome Measure: IC50

# Molecule, Outcome Measure, Reported Value
data = [
    ("NC(=O)[C@@H]1CCCN1c1cc(-n2ccnc2)c2ccc(Cl)c(Cl)c2n1 [I-448]", "IC50", "< 2000 nM"),
    ("O=C(O)CNc1cc(-c2ccn[nH]2)nc2c(Cl)c(Cl)ccc12 [I-426]", "IC50", "> 30000 nM"),
    ("NS(=O)(=O)CCNc1cc(-c2cn[nH]c2)c2ccc(Cl)c(Cl)c2n1 [I-203]", "IC50", "< 2000 nM"),
    ("CN(CCO)c1cc(-c2cn[nH]c2)c2ccc(Cl)c(Cl)c2n1 [I-240]", "IC50", "< 2000 nM"),
    ("O=C(O)[C@@H]1CCN1c1cc(-c2cn[nH]c2)c2ccc(Cl)c(Cl)c2n1 [I-352]", "IC50", "2000 to 30000 nM"),
    ("NC(=O)NC1CCCN(c2cc(-n3ccnc3)c3ccc(Cl)cc3n2)C1 (stereo not drawn) [I-104]", "IC50", "2000 to 30000 nM"),
    ("CNC(=O)CCN(C)c1cc(-c2cn[nH]c2)c2ccc(Cl)c(Cl)c2n1 [I-192]", "IC50", "< 2000 nM"),
    ("CN(CCO)c1cc(-n2ccnc2)c2ccc(Cl)c(Cl)c2n1 [I-238]", "IC50", "< 2000 nM"),
    ("O=C(O)c1cccc(Oc2cc(-n3ccnc3)c3ccc(Cl)cc3n2)c1 [I-282]", "IC50", "2000 to 30000 nM"),
]

* * *

Reported pIC50 values for the following compounds.
# Tested on: cGAS activity in Reporter THP1 cell line
# Test Details: Cellular assay to measure cGAS activity: ISRE-Gaussia luciferase reporter THP1 cells transfected with ISD
# Assay type: cell-based
# Applied Conditions: Homo sapiens, THP-1, Table 4, Gaussia luciferase
pIC50: −log10 of the molar value.
Outcome Measure: pIC50

# Compound, Outcome Measure, Reported Value
data = [
    ("NS(=O)(=O)CC1CCN(c2cc(-n3ccnc3)c3ccc(Cl)c(Cl)c3n2)C1 (centres unmarked)", "pIC50", "< 5.00"),
    ("COC(=O)C(C)COC[C@@H]1CCCN1c1cc(-n2ccnc2)c2ccc(Cl)c(Cl)c2n1 (some centres unmarked)", "pIC50", "> 5.70"),
    ("O=C(O)[C@@H]1[C@H](O)CCN1c1cc(-n2ccnc2)c2ccc(Cl)c(Cl)c2n1", "pIC50", "< 5.00"),
    ("COC(=O)[C@@H]1[C@@H](O)CCN1c1cc(-c2cn[nH]c2)c2ccc(Cl)c(Cl)c2n1", "pIC50", "> 5.70"),
    ("O=C(O)C(F)COC[C@@H]1CCCN1c1cc(-n2ccnc2)c2ccc(Cl)c(Cl)c2n1 (some centres unmarked)", "pIC50", "< 5.00"),
    ("COc1ccc(-c2cc(-n3ccnc3)c3ccc(Cl)c(Cl)c3n2)cc1C(=O)O", "pIC50", "5.00 to 5.70"),
    ("CCOC(=O)[C@@H]1[C@@H](O)CCN1c1cc(-n2ccnc2)c2ccc(Cl)c(Cl)c2n1", "pIC50", "> 5.70"),
    ("CC(COC[C@@H]1CCCN1c1cc(-n2ccnc2)c2ccc(Cl)c(Cl)c2n1)C(=O)O (some centres unmarked)", "pIC50", "> 5.70"),
    ("CO[C@@H]1C[C@@H](COCCC(=O)O)N(c2cc(-n3ccnc3)c3ccc(Cl)c(Cl)c3n2)C1", "pIC50", "> 5.70"),
    ("NC(=O)[C@@H]1CCCN1c1cc(-n2ccnc2)c2ccc(Cl)c(Cl)c2n1", "pIC50", "< 5.00"),
    ("COC(=O)CCOC[C@@H]1CCCN1c1cc(-c2cn[nH]c2)c2ccc(Cl)c(Cl)c2n1", "pIC50", "> 5.70"),
    ("O=C(O)[C@@H]1CCCN1c1cc(-c2cn[nH]c2)c2ccc(Cl)c(Cl)c2n1", "pIC50", "5.00 to 5.70"),
    ("O=C(O)CCOC[C@@H]1C[C@@H](OCc2ccccc2)CN1c1cc(-n2ccnc2)c2ccc(Cl)c(Cl)c2n1", "pIC50", "> 5.70"),
    ("O=C(O)COC[C@@H]1CN(c2cc(-c3cn[nH]c3)c3ccc(Cl)c(Cl)c3n2)CCO1", "pIC50", "< 5.00"),
    ("O=C(O)CCOC[C@@H]1C[C@@H]2C[C@@H]2N1c1cc(-n2ccnc2)c2ccc(Cl)c(Cl)c2n1", "pIC50", "> 5.70"),
    ("COC(=O)[C@@H]1[C@H](O)CCN1c1cc(-n2ccnc2)c2ccc(Cl)c(Cl)c2n1", "pIC50", "< 5.00"),
    ("CN(CCCCCC(=O)O)c1cc(-n2ccnc2)c2ccc(Cl)c(Cl)c2n1", "pIC50", "> 5.70"),
]

Recorded values, source patent US11873291B2.
